molecular target: METTL3/METTL14 (Homo sapiens, UniProt Q86U44); assay: METTL3-14 standard enzyme assay (3H-SAM flashplate scintillation); conditions: METTL3/METTL14 2.5 nM, RNA 100 nM, 3H-SAM 100 nM, 30 min
Sequence (Q86U44 whole entry, species assumed): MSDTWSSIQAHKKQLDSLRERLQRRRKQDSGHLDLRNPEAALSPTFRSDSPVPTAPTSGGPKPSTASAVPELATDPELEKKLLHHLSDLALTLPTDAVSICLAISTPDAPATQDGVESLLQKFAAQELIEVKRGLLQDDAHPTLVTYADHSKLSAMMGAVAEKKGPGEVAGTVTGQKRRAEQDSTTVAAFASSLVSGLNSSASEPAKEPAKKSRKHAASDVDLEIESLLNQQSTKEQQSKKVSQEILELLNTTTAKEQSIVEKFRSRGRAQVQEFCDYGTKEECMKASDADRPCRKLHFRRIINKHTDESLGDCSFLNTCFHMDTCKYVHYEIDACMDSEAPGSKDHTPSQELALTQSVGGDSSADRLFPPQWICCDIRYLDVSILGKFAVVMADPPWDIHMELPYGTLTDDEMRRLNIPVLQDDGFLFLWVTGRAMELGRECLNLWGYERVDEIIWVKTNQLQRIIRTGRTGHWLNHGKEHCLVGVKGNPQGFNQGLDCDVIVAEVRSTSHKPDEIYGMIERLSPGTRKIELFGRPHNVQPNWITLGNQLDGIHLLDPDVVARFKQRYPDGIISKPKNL
Sequence (Q9HCE5 whole entry partner, species assumed): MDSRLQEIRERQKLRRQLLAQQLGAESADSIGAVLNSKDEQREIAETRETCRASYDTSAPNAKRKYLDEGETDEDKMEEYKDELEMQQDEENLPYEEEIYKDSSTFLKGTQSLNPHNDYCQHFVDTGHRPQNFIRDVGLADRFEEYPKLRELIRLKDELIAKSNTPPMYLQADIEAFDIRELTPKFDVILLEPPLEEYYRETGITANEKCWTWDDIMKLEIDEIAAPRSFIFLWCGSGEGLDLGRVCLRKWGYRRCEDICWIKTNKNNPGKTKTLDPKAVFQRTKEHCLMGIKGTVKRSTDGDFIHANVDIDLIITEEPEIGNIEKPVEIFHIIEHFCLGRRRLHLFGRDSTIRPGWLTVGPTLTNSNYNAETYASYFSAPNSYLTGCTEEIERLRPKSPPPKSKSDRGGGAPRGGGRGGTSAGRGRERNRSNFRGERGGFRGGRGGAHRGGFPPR
Below is a list of entries, each paired with its recorded IC50 value.

Known IC50 results, listed for orientation:
[
  {
    "COMPOUND": "CCc1cc(N2CCCC2)c2ccc(OCc3cncc(-n4ccc5c(N)ncnc54)c3)cc2n1",
    "IC50": "< 10 nM"
  },
  {
    "COMPOUND": "CNc1ccc2ccc(OCc3cccc(-n4ccc5c(N)ncnc54)c3)cc2n1",
    "IC50": "10 to 100 nM"
  },
  {
    "COMPOUND": "Cn1ccc(-c2cn(-c3cncc(C[S+]([O-])c4ccc5ccc(N6CCC6)nc5c4)c3)c3ncnc(N)c23)n1 (centres unmarked)",
    "IC50": "> 1000 nM"
  },
  {
    "COMPOUND": "Nc1ncnc2c1c(CO)cn2-c1cncc(COc2ccc3ccc(N4CCC4)nc3c2)c1",
    "IC50": "< 10 nM"
  },
  {
    "COMPOUND": "Cc1cc(N)c2ccc(OCc3cccc(-n4ccc5c(N)ncnc54)c3)cc2n1",
    "IC50": "100 to 1000 nM"
  },
  {
    "COMPOUND": "CC(C)c1cc(N)c2ccc(CCc3cncc(-n4cc(C5CCCC5)c5c(N)ncnc54)c3)cc2n1",
    "IC50": "10 to 100 nM"
  },
  {
    "COMPOUND": "Nc1ccc2ccc(OCc3cccc(-n4cc(Cl)c5c(N)ncnc54)c3)cc2n1",
    "IC50": "> 1000 nM"
  }
]

Switching to the query record.
Could you share which IC50 value was measured for CNc1ccc2ccc(OCc3cncc(-n4cc(Cl)c5c(N)ncnc54)c3)cc2n1 ?
< 10 nM

From: patent US20220372040A1
